Can you tell me Fe (III) logK(β110) for the items I'm about to list?
Experiment Notes: iron binding efficiency, logK(β110)
Format: physicochemical
Condition Info: one metal, one ligand, no protons
Source text: The binding efficiencies may be expressed as a binding constant. A binding constant (also called formation constant or stability constant) is an equilibrium constant for the formation of a complex in solution. It is a measure of the strength of the interaction between the reagents that come together to form the complex. As an example, various stains may comprise catechins as shown in Formula 13. […]
One number for each entry.

Look over these answered cases.
INSERT INTO measurements (molecule, measured_result) VALUES
  ('O=c1cccccc1O [Tropolone, 2-Hydroxycyclohepta-2,4,6-trien-1-one]', 10.5),
  ('CC(O)(P(=O)(O)O)P(=O)(O)O', 14.1),
  ('Oc1cc(O)c2c(c1)OC(c1ccc(O)c(O)c1)C(O)C2 (stereo not shown)', 19.2);

Alright, here's another molecule for you.
Find the recorded Fe (III) logK(β110) belonging to CC(C)c1cccc(=O)c(O)c1 and report it.
12.9

---

Would you kindly list Ca^2+ logK(β110) for each of these compounds?
Experiment Notes: calcium binding efficiency, logK(β110)
Type: physicochemical
Condition Info: one metal, one ligand, no protons
Answers are plain numbers.

Some compounds with recorded Ca^2+ logK(β110):
INSERT INTO assay_data (compound, assay_metric, measured_result) VALUES
  ('CC(O)(P(=O)(O)O)P(=O)(O)O', 'Ca^2+ logK(β110)', 6.8),
  ('Oc1cc(O)c2c(c1)OC(c1ccc(O)c(O)c1)C(O)C2 (stereo not shown)', 'Ca^2+ logK(β110)', 3.5),
  ('O=c1cccccc1O [Tropolone, 2-Hydroxycyclohepta-2,4,6-trien-1-one]', 'Ca^2+ logK(β110)', 3.1);

// next entry
Recorded Ca^2+ logK(β110) for CC(C)c1cccc(=O)c(O)c1 , please?
2.2

All figures here come from patent US20250011687A1.
